- Test system: HCC-2998 colon
- protocol: NCI tumour cell line growth inhibition, 48 h
# TGI per entry

>  <molecule>
O=[N+]([O-])c1ccc2nc3c(nc2c1)-c1c2ccccc2cc2cccc-3c12

>  <TGI>
> 100 µM

$$$$
>  <molecule>
C=CCOc1c(Br)cc(Br)cc1Br

>  <TGI>
> 100 µM

$$$$
>  <molecule>
COC1OC2COC(C)(C)OC2C2OC(C)(C)OC12 (stereo unspecified)

>  <TGI>
> 100 µM

$$$$
>  <molecule>
COP(=O)(CC(=O)C1OC(OCc2ccccc2)C(OCc2ccccc2)C(OCc2ccccc2)C1OCc1ccccc1)OC (stereo unspecified)

>  <TGI>
19.2 µM

$$$$
>  <molecule>
CC1=NC(C)(C)N(O)C1(C)C

>  <TGI>
> 100 µM

$$$$
>  <molecule>
C=C1CC=CC(C)(C)C1C/C=C(\C)C(O)CBr (stereo unspecified)

>  <TGI>
> 100 µM

$$$$

----------
- System: ACHN renal
- protocol: NCI tumour cell line growth inhibition, 48 h
# log10 of TGI per entry
measurement_label: log10 of TGI (log10 of the value in µM)

>  <molecule>
C=C1C(=O)O[C@H]2[C@H]1CC/C(COC(=O)c1cc3cc(OC)ccc3[nH]1)=C\CC[C@@]1(C)O[C@@H]21

>  <system_name>
ACHN renal

>  <log10 of TGI>
0.33

$$$$
>  <molecule>
COc1cc2c(cc1OCCCOc1cc3c(cc1OC)C(=O)N1CCC[C@H]1CN3)N=C[C@@H]1CCCN1C2=O

>  <system_name>
ACHN renal

>  <log10 of TGI>
-0.44

$$$$
>  <molecule>
N#Cc1c(-c2ccccc2)nc2c(c(-c3ccccc3)nn2-c2ccccc2)c1-c1ccc(O)cc1

>  <system_name>
ACHN renal

>  <log10 of TGI>
0.77

$$$$
>  <molecule>
COc1ccc(C2C(C#N)=C(N)OC3=C2CCCc2ccc(F)cc23)cc1OC (stereo not given)

>  <system_name>
ACHN renal

>  <log10 of TGI>
1.62

$$$$
>  <molecule>
CCOc1cccc2nc3cccc(C(=O)NCCN(C)C)c3nc12

>  <system_name>
ACHN renal

>  <log10 of TGI>
0.48

$$$$
>  <molecule>
O=C(/C=C1\C[C@H]2C=Nc3ccccc3C(=O)N2C1)NCCCCCNC(=O)/C=C1\C[C@H]2C=Nc3ccccc3C(=O)N2C1

>  <system_name>
ACHN renal

>  <log10 of TGI>
0.59

$$$$
>  <molecule>
CC(=O)[CH-]C(C)=O.CC(=O)[CH-]C(C)=O.N=CC=N.[Sn+2]

>  <system_name>
ACHN renal

>  <log10 of TGI>
0.99

$$$$

----------
- Test system: UO-31 renal
- protocol: NCI tumour cell line growth inhibition, 48 h

>  <test_smiles>
CC1=C(C(=O)NNC(=O)CC#N)CC(C(=O)NNC(=O)CC#N)=C(C)N1

>  <TGI>
> 100 µM

$$$$
>  <test_smiles>
C(=N/Nc1ccc(-c2nc3ccccc3[nH]2)cc1)/c1c(-c2ccccc2)[nH]c2ccccc12

>  <TGI>
> 100 µM

$$$$
>  <test_smiles>
FC(F)=C(c1ccc(-c2ccc(Cl)cc2)cc1)C(F)(F)F

>  <TGI>
31 µM

$$$$

Value source: PubChem BioAssay (NCI)
